System: SK-MEL-5
Assay: NCI tumour cell line growth inhibition, 48 h
The source made the active and inactive calls. Rule as the data show it: active = GI50 up to about 1.1 µM and inactive = higher.
measuredMetric: GI50

Request: SK-MEL-5 / GI50 / Cc1cc(C)n(CN(Cn2nc(C)cc2C)c2ccccc2)n1 : value?
Result: 20.4 µM (inactive)

Request: SK-MEL-5 / GI50 / CCCCCCC(=O)OC[n+]1ccc2c(C)c3[nH]c4ccc(OC)cc4c3c(C)c2c1 : value?
Result: 1.16 µM (inactive)

Request: SK-MEL-5 / GI50 / COC(=O)C1=C(c2cc(OC)c(OC)c(OC)c2)OC(c2cc(OC)c(OC)c(OC)c2)C1COC(C)=O (stereo not given) : value?
Result: 29.4 µM (inactive)

Request: SK-MEL-5 / GI50 / COc1ccc(C(O)c2nccn2C)c(OC)c1 (stereo not given) : value?
Result: 86.3 µM (inactive)

Request: SK-MEL-5 / GI50 / Cc1nnc2n1N=C(c1ccccc1)/C(=C/c1ccc(-c3ccc(Cl)cc3)o1)S2 : value?
Result: 13.6 µM (inactive)

Request: SK-MEL-5 / GI50 / CN1CCN(C2=NCCO2)CC1 : value?
Result: > 100 µM (inactive)

Request: SK-MEL-5 / GI50 / Cc1c([N+](=O)[O-])oc2ccc3ccccc3c12 : value?
Result: 5.4 µM (inactive)

Request: SK-MEL-5 / GI50 / CC(C)c1cc2c(cc1S(=O)(=O)O)[C@@]1(C)CCC[C@@](C)(C(=O)O)C1CC2 (stereo not given in full) : value?
Result: > 100 µM (inactive)

Request: SK-MEL-5 / GI50 / O=C(c1cc2c(c3ccccc13)NC1(CCCCC1)N=C2C(F)(F)F)C(F)(F)F : value?
Result: 5.74 µM (inactive)

Request: SK-MEL-5 / GI50 / O=C(/C=C/c1cccc(Br)c1)N1CCN(CCOC(c2ccccc2)c2ccccc2)CC1 : value?
Result: 16 µM (inactive)

###

Test system: A549
Assay: NCI tumour cell line growth inhibition, 48 h
Calls of active or inactive are those of the source. Cut-off read from the data, not from the text of the source: active = GI50 up to about 1.1 µM and inactive = higher.
measuredMetric: GI50

Request: I would be grateful if you could share the reported GI50 for O=S1(=O)NN=C(NCc2ccc(Cl)c(Cl)c2)c2ccccc21 .
Result: > 100 µM (inactive)

Request: I would be grateful if you could share the reported GI50 for Cc1ccc(-c2cc(N)n(-c3nc4c([nH]3)c(=O)n(C)c(=O)n4C)n2)cc1 .
Result: 4.68 µM (inactive)

Request: I would be grateful if you could share the reported GI50 for COC(=O)C1CC2c3c(c4ccccc4n3C)CC(C1=O)N2C (stereo unspecified) .
Result: 36.4 µM (inactive)

Request: I would be grateful if you could share the reported GI50 for CC1(C)OC(=O)C(C)(C)OC1=O .
Result: > 100 µM (inactive)

Request: I would be grateful if you could share the reported GI50 for O=C(O)CCSC(=S)Nc1ccc([N+](=O)[O-])cc1 .
Result: > 83.2 µM (inactive)

Request: I would be grateful if you could share the reported GI50 for CCC1(C)NN=c2s/c(=C/c3ccc(OC)cc3)c(=O)n2N1 (stereo unspecified) .
Result: > 100 µM (inactive)

###

System: PC-3
Assay: NCI tumour cell line growth inhibition, 48 h
Activity calls are given as the source filed them. Cut-off read from the data, not from the text of the source: active = GI50 up to about 1.1 µM and inactive = higher.
measuredMetric: GI50

Request: I would be grateful if you could share the reported GI50 for Cc1ccc(S(=O)(=O)N/N=C2\C=CC3(CC2)C(=O)N(I)c2ccccc23)cc1 (stereo unspecified) .
Result: 63.1 µM (inactive)

Request: I would be grateful if you could share the reported GI50 for C/C(=N\c1c2ccccc2nc2ccccc12)N(C)C .
Result: 14.6 µM (inactive)

Request: I would be grateful if you could share the reported GI50 for C/C(=N\NC(=S)N(C)C)c1nc2cccnc2[nH]1 .
Result: 0.698 µM (active)

Request: I would be grateful if you could share the reported GI50 for COc1ccc(C2SC(=N)Nc3c2c(C)nn3C(=O)c2ccc(Cl)cc2)cc1OC (stereo unspecified) .
Result: > 10 µM (inactive)

Request: I would be grateful if you could share the reported GI50 for COc1cc(COC(=O)N[C@H](C(=O)O)C(C)(C)C)c([N+](=O)[O-])cc1OC .
Result: > 100 µM (inactive)

Request: I would be grateful if you could share the reported GI50 for CCOC(=O)C1C(O)CC2c3ccccc3-c3ccccc3C21 (stereo unspecified) .
Result: > 100 µM (inactive)

Request: I would be grateful if you could share the reported GI50 for CN(/N=C(\C(=O)O)c1ccccc1)C1=NCCCN1 .
Result: > 100 µM (inactive)

Request: I would be grateful if you could share the reported GI50 for O=C1C=C(c2c(-c3ccccc3)[nH]c3ccccc23)C(=O)N1c1ccccc1 .
Result: 7.78 µM (inactive)

Request: I would be grateful if you could share the reported GI50 for Oc1ccc([I+]c2ccccc2)cc1O .
Result: 22.3 µM (inactive)

Request: I would be grateful if you could share the reported GI50 for CC1(C)CC2(C)CC1CC2NC(=O)CCN1CCOCC1 (stereo unspecified) .
Result: > 100 µM (inactive)

Request: I would be grateful if you could share the reported GI50 for CCOC(=O)NC(C(=O)OCC)(N1CCN(c2cc3c(cc2F)c(=O)c(C(=O)O)cn3CC)CC1)C(F)(F)F (stereo unspecified) .
Result: > 100 µM (inactive)

###

Tested on: MCF7
Experiment: NCI tumour cell line growth inhibition, 48 h
Calls of active or inactive are those of the source. Rule as the data show it: active = GI50 up to about 1.1 µM and inactive = higher.
measuredMetric: GI50

Request: MCF7 / GI50 / Cc1cc(C)n(CN(CCCCO)Cn2nc(C)cc2C)n1 : value?
Result: 26.8 µM (inactive)

Request: MCF7 / GI50 / O=C(O)C1C2CCC(C2)C1c1ccccc1 (stereo unspecified) : value?
Result: > 100 µM (inactive)

Request: MCF7 / GI50 / CCOC(=O)c1c2c(n(C)c1-c1ccccc1)C(=O)C(C)=CC2=O : value?
Result: 2.37 µM (inactive)

Request: MCF7 / GI50 / Cc1oc2nc(N(C)C)n3cnnc3c2c1C : value?
Result: > 100 µM (inactive)

Request: MCF7 / GI50 / CC(=O)OCC1OC(c2nc3ccccc3s2)=CC(OC(C)=O)C1OC(C)=O (stereo unspecified) : value?
Result: > 100 µM (inactive)

Request: MCF7 / GI50 / Nc1ccc(S2(c3ccc(N)cc3)C=C(c3ccccc3)C(c3ccccc3)=C2)cc1 : value?
Result: > 32.1 µM (inactive)

###

Test system: UACC-257
Test: NCI tumour cell line growth inhibition, 48 h
The source made the active and inactive calls. Rule as the data show it: active = GI50 up to about 1.1 µM and inactive = higher.
Respond with a class label; see Yes = active, No = inactive

Request: // outcome(item) with item = COC1=CC(=O)c2c(O)c3c(c(O)c2C1=O)C[C@](C)(O)C[C@@H]3O
Result: No

Request: // outcome(item) with item = NNC(=S)N/N=C(\c1nc2ccc(Cl)cc2nc1O)C(O)c1ccc(Cl)cc1Cl (stereo not given)
Result: No

Request: // outcome(item) with item = Nc1ccc2c(c1)nc1n2C(c2c(F)cccc2F)SC1 (stereo not given)
Result: No

Request: // outcome(item) with item = CC(C)(C)C(=C[S+]([O-])/N=C/c1ccccc1)C(C)(C)C (stereo not given)
Result: No

Request: // outcome(item) with item = COc1cc2c(c(O)c1OC)C(=O)C(Cc1ccc(O)cc1)CO2 (stereo not given)
Result: No

Request: // outcome(item) with item = COc1cc(C2c3[nH]c4ccccc4c3[C@@H](Nc3ccc(C#N)cc3)[C@H]3COC(=O)N23)cc(OC)c1O (stereo not given in full)
Result: Yes

Request: // outcome(item) with item = Cc1ccc(-[n+]2cc([O-])on2)cc1
Result: No

Request: // outcome(item) with item = O=C(N/N=C/c1cc(-c2ccccc2Cl)c(-c2ccccc2Cl)o1)c1ccncc1
Result: No

Request: // outcome(item) with item = COc1cc(S(=O)(=O)N/N=C/c2cc(Br)c(O)c(OC)c2)c(OC)cc1NC(C)=O
Result: No

Request: // outcome(item) with item = CCN(CC)CCSc1nc(-c2c[nH]c3nc(C)ccc3c2=O)n[nH]1
Result: No

###

Tested on: HOP-62
Assay: NCI tumour cell line growth inhibition, 48 h
Calls of active or inactive are those of the source. Cut-off read from the data, not from the text of the source: active = GI50 up to about 1.1 µM and inactive = higher.
measuredMetric: GI50

Request: I would be grateful if you could share the reported GI50 for CN(C)Cc1ccc(-c2cc3onc(-c4ccccc4)c3c(=O)n2C)cc1 .
Result: 20.7 µM (inactive)

Request: I would be grateful if you could share the reported GI50 for CC(C)OCC(O)COc1cc(=O)oc2ccccc12 (stereo unspecified) .
Result: > 100 µM (inactive)

Request: I would be grateful if you could share the reported GI50 for CCOC(=O)c1ccc(/N=c2\oc3ccc(OC)cc3cc2-c2nc3ccccc3[nH]2)cc1 .
Result: 54.6 µM (inactive)

Request: I would be grateful if you could share the reported GI50 for O=[N+]([O-])C(=C1NCCN1)C(Cl)=C(Cl)Cl .
Result: > 100 µM (inactive)

Request: I would be grateful if you could share the reported GI50 for COC(=O)/C(Cl)=C1/CC1COCc1ccccc1 (stereo unspecified) .
Result: > 100 µM (inactive)

Request: I would be grateful if you could share the reported GI50 for CCCCN/N=N/c1cn(C2OC(CO)C(O)C2O)c(=O)[nH]c1=O (stereo unspecified) .
Result: > 100 µM (inactive)

Request: I would be grateful if you could share the reported GI50 for c1ccc(-c2[nH]c(-c3ccccc3)c(-c3cnccn3)c2-c2cnccn2)cc1 .
Result: > 100 µM (inactive)

Request: I would be grateful if you could share the reported GI50 for CC1=NN(C(=O)c2ccccc2)C(=O)C1/N=N/c1ccccc1C(=O)O (stereo unspecified) .
Result: 6.15 µM (inactive)

Request: I would be grateful if you could share the reported GI50 for OCC1OC(n2cnc3c(Cl)nc(Nc4ccc(Cl)c(Cl)c4)nc32)CC1O (stereo unspecified) .
Result: 10.5 µM (inactive)

Request: I would be grateful if you could share the reported GI50 for O=C(O)C1C2CCC(C2)C1c1ccccc1 (stereo unspecified) .
Result: > 100 µM (inactive)

Request: I would be grateful if you could share the reported GI50 for N#C/C(=C/Sc1ccccc1)C(=O)O .
Result: 43.9 µM (inactive)
